Target: RAR γ (Homo sapiens)
Sequence (P13631 1-454): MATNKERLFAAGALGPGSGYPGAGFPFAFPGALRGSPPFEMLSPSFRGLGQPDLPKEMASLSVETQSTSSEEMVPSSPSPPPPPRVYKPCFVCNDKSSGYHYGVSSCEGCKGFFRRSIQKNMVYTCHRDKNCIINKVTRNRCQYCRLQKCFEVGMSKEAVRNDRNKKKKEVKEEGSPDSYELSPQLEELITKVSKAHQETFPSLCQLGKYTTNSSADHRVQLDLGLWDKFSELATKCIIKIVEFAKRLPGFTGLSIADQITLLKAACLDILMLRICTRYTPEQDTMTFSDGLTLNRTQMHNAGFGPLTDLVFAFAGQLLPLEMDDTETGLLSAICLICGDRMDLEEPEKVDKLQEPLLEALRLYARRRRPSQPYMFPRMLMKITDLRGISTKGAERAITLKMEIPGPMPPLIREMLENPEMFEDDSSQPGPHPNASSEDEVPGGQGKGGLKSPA
Assay: RAR γ EC50/(efficacy)
Assay type: cell-based
Conditions: value in brackets of cell EC50/(EFFICACY)/Kd

{"columns": ["compound", "RAR γ (EFFICACY)"],
 "data": [
  ["CCC1(CC)CC(C)(C)c2cc(C#Cc3ccc(C(C)(C)C(=O)O)cc3)cc(C(C)C)c2O1", 25],
  ["CC(C)(C)c1cccc(C#Cc2ccc(/C=C/C(=O)O)cc2)c1", 48],
  ["CC(C)Oc1cc(C#Cc2ccc(CC(=O)O)cc2)cc2c1C(N(C)C1CC1)CCC2(C)C (stereo not shown)", 30],
  ["CCOC(=O)C1=CCC(C)(C)c2cc(C#Cc3ccc(CC(=O)O)cc3)c(C)cc21", 30],
  ["CN(c1cccc(C#Cc2ccc(/C=C/C(=O)O)cc2)c1)C1CC1", 15],
  ["C/C(=C\\c1ccc(C#Cc2cc(C3CC3)c3c(c2)C(C)(C)CC2(CC2)O3)cc1)C(=O)O", 10],
  ["CCOC(=O)C1=CCC(C)(C)c2cc(C#Cc3ccc(CC(=O)O)c(F)c3)ccc21", 15],
  ["CN(C1CC1)C1CCC(C)(C)c2cc(C#Cc3ccc(/C=C/C(=O)O)cc3)cc(C3CC3)c21 (stereo not shown)", 25],
  ["CC1(C)CC2(CC2)Oc2c(C3CC3)cc(NC(=O)Nc3ccc(C(=O)O)cc3)cc21", 15]
]}

###

target: RAR α (Homo sapiens); test: RAR α Kd; assay type: binding; conditions: last item of cell EC50/(EFFICACY)/Kd
pKd: −log10 of the molar value.

{"columns": ["molecule", "pKd"],
 "data": [
  ["CN(Cc1cc(C#Cc2ccc(C(C)(C)C(=O)O)cc2)cc2c1OC(C)(C)CC2(C)C)C1CC1 [Compound 9]", "< 5.00"],
  ["CC1(C)CC2(CC2)Oc2c(C3CC3)cc(C#Cc3ccc(C(C)(C)C(=O)O)cc3)cc21 [Compound 2]", 6.25],
  ["CC1(C)CC(C)(C)c2cc(C#Cc3ccc(CC(=O)O)c(F)c3)cc(O)c2O1 [Compound 10]", "< 5.00"],
  ["COc1cc(C#Cc2ccc(C(C)(C)C(=O)O)cc2)cc2c1C(N(C)C1CC1)CCC2(C)C (centres unmarked) [Compound 28]", "< 5.00"],
  ["CCOC(=O)C1CCC(C)(C)c2cc(C#Cc3ccc(CC(=O)O)cc3)c(C)cc21 (centres unmarked) [Compound 57]", 5.22],
  ["CN(C1CC1)C1CCC(C)(C)c2cc(C#Cc3ccc(C(C)(C)C(=O)O)cc3)ccc21 (centres unmarked) [Compound 52]", "< 5.00"],
  ["C=Cc1cc(C#Cc2ccc(CC(=O)O)cc2)cc2c1C(=O)CCC2(C)C [Compound 22]", "< 5.00"],
  ["CN(Cc1cc(C#Cc2ccc(CC(=O)O)c(F)c2)cc2c1OC(C)(C)CC2(C)C)C1CC1 [Compound 7]", "< 5.00"]
]}

###

Molecular target: RAR γ (Homo sapiens)
Sequence (P13631 1-454): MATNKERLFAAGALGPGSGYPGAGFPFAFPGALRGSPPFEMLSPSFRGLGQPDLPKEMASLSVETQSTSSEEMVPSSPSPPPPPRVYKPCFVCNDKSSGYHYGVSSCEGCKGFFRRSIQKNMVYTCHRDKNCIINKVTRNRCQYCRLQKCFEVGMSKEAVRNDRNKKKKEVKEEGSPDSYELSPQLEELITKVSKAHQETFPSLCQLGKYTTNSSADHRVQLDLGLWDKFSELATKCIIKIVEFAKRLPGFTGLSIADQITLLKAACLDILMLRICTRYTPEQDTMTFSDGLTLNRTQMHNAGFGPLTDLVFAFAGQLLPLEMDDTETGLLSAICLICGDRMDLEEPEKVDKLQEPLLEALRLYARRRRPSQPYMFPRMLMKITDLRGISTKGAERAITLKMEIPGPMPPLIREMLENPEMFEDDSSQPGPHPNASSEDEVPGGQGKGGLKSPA
Assay: RAR γ Kd
Type: binding
Conditions: last item of cell EC50/(EFFICACY)/Kd

{"columns": ["compound", "qual", "Kd / µM"],
 "data": [
  ["COc1cc(C#Cc2ccc(CC(=O)O)c(F)c2)cc2c1C(N(C)C1CC1)CCC2(C)C (centres unmarked)", "=", 1.12],
  ["CCOC(=O)C1=C(C)CC(C)(C)c2cc(C#Cc3ccc(CC(=O)O)c(F)c3)ccc21", ">", 10],
  ["CC(C)OC(=O)c1ccc(C#Cc2ccc(C(C)C(=O)O)cc2)cc1CN(C)C1CC1 (centres unmarked)", ">", 10],
  ["CCOC(=O)C1=CCC(C)(C)c2cc(C#Cc3ccc(CC(=O)O)cc3)c(C)cc21", ">", 10],
  ["CCOC(=O)c1cc(C#Cc2ccc(CC(=O)O)cc2)cc2c1C(N(C)C1CC1)CCC2(C)C (centres unmarked)", "=", 7.75],
  ["CC(C)Oc1cc(C#Cc2ccc(CC(=O)O)cc2)cc2c1C(N(C)C1CC1)CCC2(C)C (centres unmarked)", ">", 10],
  ["CCOC(=O)C1CCC(C)(C)c2cc(C#Cc3ccc(CC(=O)O)cc3)c(C)cc21 (centres unmarked)", "=", 7.74],
  ["Cc1ccc(CN(C)C2CC2)cc1C#Cc1ccc(/C=C/C(=O)O)cc1", "=", 8.53]
]}

###

As shown below, each of these molecules has a reported pKd value.
biological target: UniProt:P10826; assay: RAR β Kd; format: binding; conditions: last item of cell EC50/(EFFICACY)/Kd
Sequence (P10826 whole entry): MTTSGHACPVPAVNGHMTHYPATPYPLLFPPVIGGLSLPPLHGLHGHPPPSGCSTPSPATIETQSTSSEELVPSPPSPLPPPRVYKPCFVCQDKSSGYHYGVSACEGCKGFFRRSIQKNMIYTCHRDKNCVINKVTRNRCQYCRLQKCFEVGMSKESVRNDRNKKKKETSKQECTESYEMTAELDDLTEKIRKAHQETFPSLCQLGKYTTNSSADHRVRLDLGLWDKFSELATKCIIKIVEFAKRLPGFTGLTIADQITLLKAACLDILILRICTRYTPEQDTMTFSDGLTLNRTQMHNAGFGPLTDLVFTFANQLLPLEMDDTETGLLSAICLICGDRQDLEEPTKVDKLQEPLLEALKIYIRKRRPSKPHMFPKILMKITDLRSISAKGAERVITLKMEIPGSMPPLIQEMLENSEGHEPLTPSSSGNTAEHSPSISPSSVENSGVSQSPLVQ
pKd: −log10 of the molar value.
readout label: pKd

{"columns": ["molecule", "readout label", "result"],
 "data": [
  ["CCOC(=O)C1=CCC(C)(C)c2cc(C#Cc3ccc(CC(=O)O)c(F)c3)c(C)cc21 [Compound 56]", "pKd", "< 5.00"],
  ["C#Cc1cc(C#Cc2ccc(CC(=O)OCOC(C)=O)c(F)c2)cc(C(=O)OC(C)C)c1 [Compound 62]", "pKd", "< 5.00"],
  ["CC(C)OC(=O)c1ccc(C#Cc2ccc(CC(=O)O)cc2)cc1CN(C)C1CC1 [Compound 38]", "pKd", "< 5.00"]
]}

###

target: CYP26A (P450RAI-1) (Homo sapiens, UniProt O43174); construct: expressed in transfected cells; host or cells: HeLa; assay: Cell-based inhibition of RA metabolism in CYP26A stably transfected HeLa cells; settings: stably transfected HeLa cells, [3H]-RA, 3 hours at 37° C.; read-out: P450RAI-1 Whole cell IC50
Sequence (O43174 whole entry): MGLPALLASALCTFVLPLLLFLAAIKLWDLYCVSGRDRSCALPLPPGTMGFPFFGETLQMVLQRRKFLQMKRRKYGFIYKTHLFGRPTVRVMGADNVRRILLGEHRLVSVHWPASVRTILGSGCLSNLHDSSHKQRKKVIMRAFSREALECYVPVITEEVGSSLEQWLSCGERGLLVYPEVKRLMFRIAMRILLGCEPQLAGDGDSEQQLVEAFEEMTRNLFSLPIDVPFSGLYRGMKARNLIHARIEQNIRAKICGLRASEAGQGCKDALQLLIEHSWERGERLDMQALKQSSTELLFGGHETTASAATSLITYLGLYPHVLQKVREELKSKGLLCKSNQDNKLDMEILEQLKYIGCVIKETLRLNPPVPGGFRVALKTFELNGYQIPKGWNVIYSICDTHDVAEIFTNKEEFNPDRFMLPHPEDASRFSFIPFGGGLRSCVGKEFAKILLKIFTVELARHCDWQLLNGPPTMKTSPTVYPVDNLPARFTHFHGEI
pIC50: −log10 of the molar value.
Recorded pIC50 for the following compounds
readout label: pIC50

{"columns": ["compound", "result"],
 "data": [
  ["C/C(=C\\c1ccc(C#Cc2cccc(CN(C)C3CC3)c2)cc1)C(=O)O [Compound 33]", "< 5.00"],
  ["CC1(C)CC2(CC2)Oc2c(C3CC3)cc(NC(=O)Nc3ccc(C(=O)O)cc3)cc21 [Compound 5]", "< 5.00"],
  ["CC(C)(C)c1cccc(C#Cc2ccc(/C=C/C(=O)O)cc2)c1 [Compound 35]", "< 5.00"]
]}

###

Entries annotated with measured pKd
molecular target: RAR α (Homo sapiens, UniProt P10276); assay: RAR α Kd; format: binding; conditions: last item of cell EC50/(EFFICACY)/Kd
Sequence (P10276 whole entry): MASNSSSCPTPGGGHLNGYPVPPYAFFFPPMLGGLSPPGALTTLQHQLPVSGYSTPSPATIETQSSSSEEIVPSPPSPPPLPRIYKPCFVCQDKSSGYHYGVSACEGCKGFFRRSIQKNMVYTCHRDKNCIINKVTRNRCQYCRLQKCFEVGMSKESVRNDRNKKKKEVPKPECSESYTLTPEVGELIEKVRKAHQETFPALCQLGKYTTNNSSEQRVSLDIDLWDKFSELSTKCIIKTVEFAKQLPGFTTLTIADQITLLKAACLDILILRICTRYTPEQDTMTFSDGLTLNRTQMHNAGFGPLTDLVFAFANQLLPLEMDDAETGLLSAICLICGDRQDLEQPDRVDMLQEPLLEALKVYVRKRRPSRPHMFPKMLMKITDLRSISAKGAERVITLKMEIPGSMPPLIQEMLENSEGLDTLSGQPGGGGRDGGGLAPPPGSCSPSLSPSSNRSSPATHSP
pKd: −log10 of the molar value.
readout label: pKd

{"columns": ["compound", "result"],
 "data": [
  ["CN(C1CC1)C1CCC(C)(C)c2cc(C#Cc3ccc(C(C)(C)C(=O)O)cc3)cc(C3CC3)c21 (stereo not drawn)", "< 5.00"],
  ["COc1cc(C#Cc2ccc(CC(=O)O)cc2)cc2c1C(N(C)C1CC1)CCC2(C)C (stereo not drawn)", "< 5.00"],
  ["CC1(C)CC2(CC2)Oc2c(C3CC3)cc(C#Cc3ccc(/C=C(\\Cl)C(=O)O)cc3)cc21", "< 5.00"]
]}
